System: TMEM97/PGRMC1 double KO HeLa cells
Assay: Cell viability assay (CellTiter Glo), double KO cells
Format: cell-based, human
Details: Homo sapiens, 24 h, mean ± SD
pEC50 values, listed per item
Recall that pEC50 is obtained by taking minus log10 of the concentration measured in molar.

Solved cases below.
COc1ccc(C)cc1NC(=O)OC1CC2CCCC(C1)N2CCCCCCCCCCN (stereo not drawn) [SW43] : 4.48
Fc1ccc(-n2cc(CCCCN3CCC4(CC3)OCc3ccccc34)c3ccccc32)cc1 [Siramesine, siramesine] : 5.00

Next:
pEC50 reading for COc1cccc2c1CCCC2CCCN1CCN(C2CCCCC2)CC1 (stereo not drawn) [PB28] : 4.24

* * *

Biological target: sigma-1 receptors (Cavia porcellus, UniProt Q60492)
Construct: 100 μg guinea pig brain membrane homogenates; from tissue; host or cells: guinea pig brain membrane homogenates
Sequence (Q60492 whole entry): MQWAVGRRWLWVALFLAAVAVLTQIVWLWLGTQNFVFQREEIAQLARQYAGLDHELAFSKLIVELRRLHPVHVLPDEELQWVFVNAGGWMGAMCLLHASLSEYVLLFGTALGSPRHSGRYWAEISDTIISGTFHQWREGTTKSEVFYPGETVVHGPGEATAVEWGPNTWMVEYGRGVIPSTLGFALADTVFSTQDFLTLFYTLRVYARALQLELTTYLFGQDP
Assay: Sigma-1 receptor competition binding assay with [3H](+)-pentazocine
Design: species or system guinea pig
Settings: guinea pig brain membranes, 5 nM [3H](+)-pentazocine, mean ± SD; read-out: Ki for sigma-1 receptors
Quantity: Ki (nM)
Respond with the bare value in nM.

The reported value for COc1cc2c(cc1OC)CN(CCCCNC(=O)c1cc(C)ccc1OC)CC2 [RHM-1] in terms of Ki is 1930

* * *

System: control HeLa cells
Assay: Cell viability assay (CellTiter Glo), control cells
Assay type: cell-based, human
Conditions: Homo sapiens, 24 h, mean ± SD
Quantity: EC50 (µM)
// units = µM; emit number, no label

The compound identified as Fc1ccc(-n2cc(CCCCN3CCC4(CC3)OCc3ccccc34)c3ccccc32)cc1 [Siramesine, siramesine] registered its EC50 at 12.1

The compound COc1cccc2c1CCCC2CCCN1CCN(C2CCCCC2)CC1 (stereo not drawn) [PB28] showed EC50 equal to 58.2

Summary for this compound, COc1ccc(C)cc1NC(=O)OC1CC2CCCC(C1)N2CCCCCCCCCCN (stereo not drawn) [SW43] : EC50 is 33.7

* * *

Test system: control, TMEM97 KO, PGRMC1 KO and double KO HeLa cells
Assay: Cell viability assay across control and knockout HeLa cell lines (results in words)
Settings: control, TMEM97 KO, PGRMC1 KO and double KO HeLa cells
Quantity: cytotoxicity in control and knockout cells

COc1cc2c(cc1OC)CN(CCCCNC(=O)c1cc(C)ccc1OC)CC2 [RHM-1] : did not exhibit
COc1cc2c(cc1OC)CN(CCCCNC(=O)c1cc(C)ccc1OCCF)CC2 [ISO-1] : did not exhibit

* * *

Target: UniProt Q5U3Y7
Sequence (Q5U3Y7 whole entry): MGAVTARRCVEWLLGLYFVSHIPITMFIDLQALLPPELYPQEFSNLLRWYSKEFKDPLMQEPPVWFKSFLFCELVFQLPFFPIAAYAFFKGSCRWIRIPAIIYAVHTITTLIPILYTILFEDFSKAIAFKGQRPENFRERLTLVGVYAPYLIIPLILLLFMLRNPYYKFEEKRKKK
Assay: Sigma-2 receptor competition binding assay with [3H]DTG
Design: 60 μg Sprague Dawley rat liver membrane homogenates; from tissue; host or cells: Sprague Dawley rat liver membrane homogenates
Quantity: pKi
Units for pKi: none; it is -log10 of a concentration expressed in mol/L.

COc1ccc(C)cc1NC(=O)OC1CC2CCCC(C1)N2CCCCCCCCCCN (centres unmarked) [SW43] : 7.89

Moving on to another compound below.
Short answer for COc1ccc(C)cc1NC(=O)OC1CC2CCCC(C1)N2CCCCCCCCCCNc1ccc([N+](=O)[O-])c2nonc12 (centres unmarked) [SW120] : pKi was 9.00

* * *

Target: sigma-1 receptors (Cavia porcellus, UniProt Q60492)
Construct: 100 μg guinea pig brain membrane homogenates; from tissue; host or cells: guinea pig brain membrane homogenates
Test: Sigma-1 receptor competition binding assay with [3H](+)-pentazocine
Set-up: species or system guinea pig
Quantity: Ki (nM)
API: value field is a number in nM; no unit string.

Consider Fc1ccc(-n2cc(CCCCN3CCC4(CC3)OCc3ccccc34)c3ccccc32)cc1 [Siramesine, siramesine] . Its measured Ki is 3

From: paper PMC6349905
